procedure-details: Pharmacokinetics after single oral administration to male Wistar rat
Format: in vivo
measurement-parameters: male, Wistar, rat, plasma, po, 10 mg/kg, rat R1, 1 h, 10 mg/kg oral
Counter-ions that a name gives are not always drawn.

{"compound": "CC(=O)N1CCN(CCOCc2ccn(-c3ccc(F)c(F)c3)n2)CC1 [Example 1, hydrochloride]", "concentration at 1 h, ng/mL": 1070}

* * *

procedure-details: Pharmacokinetics after single oral administration to male Wistar rat
Format: in vivo
measurement-parameters: male, Wistar, rat, plasma, po, 10 mg/kg, animal 1, 10 mg/kg oral; read-out: Cmax
Where a name gives a salt, the structure may show the parent alone.

{"compound": "CC(=O)N1CCN(CCOCc2ccn(-c3ccc(F)c(F)c3)n2)CC1 [Example 1, hydrochloride]", "unit-spec": "ng/mL", "Cmax": 1310}
